# study-system: IDO1 (Homo sapiens, UniProt P14902)
# Sequence (P14902 whole entry): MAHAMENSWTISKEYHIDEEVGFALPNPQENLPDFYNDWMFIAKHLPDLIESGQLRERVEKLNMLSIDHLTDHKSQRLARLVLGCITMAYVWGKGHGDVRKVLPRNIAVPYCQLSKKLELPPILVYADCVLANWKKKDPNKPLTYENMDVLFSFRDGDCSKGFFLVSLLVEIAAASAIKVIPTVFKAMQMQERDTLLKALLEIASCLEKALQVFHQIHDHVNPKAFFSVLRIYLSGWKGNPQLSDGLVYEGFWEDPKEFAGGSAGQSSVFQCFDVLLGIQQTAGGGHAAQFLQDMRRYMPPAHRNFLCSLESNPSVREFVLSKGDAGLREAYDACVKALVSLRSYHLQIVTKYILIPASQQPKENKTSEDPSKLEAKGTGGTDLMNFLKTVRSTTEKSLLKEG
# test-description: IDO1 Human Whole Blood Assay
# Format: cell-based
# Parameters: Human whole blood was drawn in sodium heparin coated tubes from healthy internal donors; from tissue; host or cells: human whole blood from healthy donors, stimulated with LPS and IFNγ
# run-parameters: LPS and IFNγ stimulated
# Protocol: IDO1 Human Whole Blood Assay Compounds to be tested were serially diluted in ten 3-fold steps in DMSO starting from 10 mM. […] LPS and IFNγ was prepared in RPMI to a 10× of final conc. (1000 ng/mL), final concentration is 100 ng/mL. Human whole blood was drawn in sodium heparin coated tubes from healthy internal donors. 240 μL of blood was transferred to each of the wells of a v-bottom 96 well plate. 30 μL of compound was transferred from intermediate dilution plate, and incubated for 15 min. […]
Measured pIC50 by item
Formally, pIC50 is defined as -log10 of the concentration c, with c in mol/L.

These solved cases illustrate the format of a correct answer.
- compound: "CCN(CC)CCOC(=O)N1CCCc2nc(C(C)NC(=O)c3ccc(F)cc3)ccc21 (stereo not shown)"
  pIC50: 6.62
- compound: "CC(NC(=O)c1ccc(F)cc1)c1ccc2c(n1)CCCN2C(=O)OCCCc1ccncc1 (stereo not shown)"
  pIC50: 7.24
- compound: "CC(NC(=O)c1ccc(F)cc1)c1ccc2c(n1)CCCN2C(=O)c1c(Cl)cccc1Cl (stereo not shown)"
  pIC50: 5.94
- compound: "Cc1nccc(N2CCCc3nc(C(C)(C)C(=O)Nc4ccc(F)cc4)ccc32)n1"
  pIC50: 7.36

### Prompt Given the compound O=C(OC1CC1)N1CCc2cc(C3(C(=O)Nc4ccc(F)cc4)CCC3)ccc21 , what is its reported pIC50?
### Response 7.39

### Prompt Could you do the same for Cc1nccc(N2CCCc3nc(C4(C(=O)Nc5ccc(F)cc5)COC4)ccc32)n1 , please?
### Response 7.59

### Prompt Next entry: CC(C(=O)Nc1ccc(F)cc1)c1ccc2c(c1)CCCN2C(=O)C1CC1(F)F (stereo not shown)
### Response 6.82

###

# study-system: IDO1 (Homo sapiens, UniProt P14902)
# test-description: IDO1 Cellular Assay in HeLa Cells Stimulated with IFNγ
# Assay type: cell-based
# run-parameters: about 48 hours, read-out: Hela IC50
Recorded IC50 values for a group of compounds are listed next.
Only the number, expressed in nM, is required.

Here are 3 compounds together with their reported answers.
- compound: "CC(NC(=O)c1ccc(F)cc1)c1ccc2c(n1)CCCN2C(=O)C1(C)CCCCO1 (stereo not shown) [Example 136]"
  study-system: "IDO1 (Homo sapiens, UniProt P14902)"
  result-number: 540
- compound: "CC(C(=O)Nc1ccc(Cl)cc1)c1ccc2c(c1)CCCN2C(=O)c1cccc(Cl)c1 (stereo not shown)"
  study-system: "IDO1 (Homo sapiens, UniProt P14902)"
  result-number: 2
- compound: "Cc1cc(C(=O)N2CCCc3cc(C4(C(=O)Nc5ccc(F)cn5)CCC4)ccc32)ncn1"
  study-system: "IDO1 (Homo sapiens, UniProt P14902)"
  result-number: 12.8

From here, focus on the item given below.
### Prompt Give IC50 (IDO1 (Homo sapiens, UniProt P14902)) of the following compound: Cc1nc(C(=O)N2CCCc3cc([C@H](C)C(=O)Nc4ccc(F)cn4)ccc32)no1
### Response 1.9
